// provenance: patent US20240158475A1

# key: entry, value: Kd
SYSTEM NAME: DN-III quality control recombinant protein (produced by Fapon Biotech InC.) (dengue virus)
PROCEDURE TEXT: BLI, AMC sensor, antibody captured

BINDER | Kd, nM
Mutation 1-41 (antibody, V domains shown) VH: EVQLQQSGTELVRPGALVKLSCKASGFNIKDYYLHWVKQRPRQGLEWIGWIDPENGKTIYDPKFQDKASITSDTSTNTAYLQLRSLTSEDTAVYYCVSAYYRFVYWGQGTLVTVSA VL: QIVLTQSPAIMSAFPGERVTMTCSASTSVRYMYWHQQKPGSSPRLLIYDTSNIASGVPVRFSGSGSGTSYSLTISRDEAMDAATYYCQQWSSYPRTFGGGTKLEIKR | 0.79
Mutation 1-40 (antibody, V domains shown) VH: EVQLQQSGTELVRPGALVKLSCKASGFNIKDYYIHWVKQRPRQGLEWIGWIDPENGKTLYDPKFQDKASITSDTSTNTAYLQLRSLTSEDTAVYYCVTAYVRFVYWGQGTLVTVSA VL: QIVLTQSPAIMSAFPGERVTMTCSASSSVRYMYWHQQKPGSSPRLLIYDTSNVASGVPVRFSGSGSGTSYSLTISRDEAMDAATYYCQQWSSTPRTFGGGTKLEIKR | 0.115
